Origin of values: PubChem BioAssay

In this section, each of the molecules is paired with its reported composite z-score.
- system-tested: Torsin-1A-interacting protein 2 (Homo sapiens) (UniProt Q8NFQ8)
- Sequence (Q8NFQ8 whole entry, looked up): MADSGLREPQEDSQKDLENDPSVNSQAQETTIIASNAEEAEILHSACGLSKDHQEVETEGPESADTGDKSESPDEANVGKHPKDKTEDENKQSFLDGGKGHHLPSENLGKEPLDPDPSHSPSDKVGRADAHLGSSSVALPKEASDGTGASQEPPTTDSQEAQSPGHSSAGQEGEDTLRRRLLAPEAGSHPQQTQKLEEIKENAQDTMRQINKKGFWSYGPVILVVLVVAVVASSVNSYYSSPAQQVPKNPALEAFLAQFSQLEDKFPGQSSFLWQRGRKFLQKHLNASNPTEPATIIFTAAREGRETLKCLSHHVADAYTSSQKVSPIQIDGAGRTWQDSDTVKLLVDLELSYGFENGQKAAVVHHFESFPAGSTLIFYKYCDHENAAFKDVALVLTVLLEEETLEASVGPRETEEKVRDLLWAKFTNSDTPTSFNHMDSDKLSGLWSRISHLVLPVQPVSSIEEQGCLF
- experiment-description: small molecules binding lysate-expressed LULL1 – cell lysate, human LULL1 lysate, 635/667 nm fluorescence, primary screen (AID 1092);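 also: probe is lysate of COS7 cells overexpressing human LULL1; score merges per-feature 667 nm fluorescence with signal-to-noise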
- condition-context: small-molecule microarray, hLULL1 lysate binding, 635 nm fluorescence; higher = more signal

Example entries and their recorded answers appear below.
CC(=O)NCCCC[C@@H]1NC(=O)[C@@H]2C[C@H](C(=O)NCCCCCN)[C@H](c3ccc(O)cc3)N2C1=O = 2.25
[N-]=[N+]=NCc1ccccc1[C@@H]1OC(c2ccc(OCCCO)cc2)=N[C@]1(CCS(=O)(=O)c1ccccc1)C(=O)O = 3.31
CCOC(=O)C1=C[C@@H](C(C)(C)C)N(S(=O)(=O)c2ccc(C)cc2)[C@H]1c1cccc2ccccc12 = 2.36
CC(C)NC(=O)[C@@]1(c2ccc([N+](=O)[O-])cc2)CC(=O)N(C2CCCCC2)[C@@H]1c1ccc(CO)cc1 = 2.85
CCCCN1CC=CC23O[C@@H]4/C=C\CCCOC(=O)C4[C@H]2C(=O)N(CCO)[C@@H]3C1=O (stereo partly drawn) = 3.01
CCOC(=O)C[C@H]1[C@H](OC(=O)c2cc3ccccc3oc2=O)[C@@H](NC(=O)CC(C)C)c2cc(OCCCO)ccc2N1C(=O)c1ccc2ccccc2n1 = 1.09

Ask: // map CC(C)(C)OC(=O)COc1cccc(C(=O)CCN2CCOCC2)c1 to recorded composite z-score (system: Torsin-1A-interacting protein 2 (Homo sapiens) (UniProt Q8NFQ8))
Result: 0.557

Ask: How about COC(=O)C1=CC(CCCO)=CC(c2ccc(CN3CCCC3)cc2)N(Cc2cccc(OC(F)(F)F)c2)C=C1C(=O)OC (stereo not drawn) ?
Result: 3.31

----------
- experiment-description: optical density shifts of acrAB sulA E. coli – strain DRC41, OD650, 48 h, E. coli filamentation inducer project, primary screen (AID 1152);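 also: E. coli MC1000 strain DRC41 lacking acrAB efflux pump and sulA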
- condition-context: higher = more signal, called active from +8 up or from −8 down
In this section, each of the molecules is paired with its reported z-score.
Respond numerically, and do not add a unit to the figure.

Ask: z-score lookup needed for CCCCCCc1nc(Cc2cc(OC)c(OC)c(OC)c2)cc2c1[Si](C(C)C)(C(C)C)OC2 , thanks.
Result: -0.56

Ask: How about Cc1cc(C)c(C(O)C2C=CC3C(=O)N(c4ccccc4)C(=O)C3N2Nc2ccccc2F)c(C)c1 (configuration not stated) ?
Result: -1.56

Ask: How about COc1cc(NN2C(C(O)c3ccco3)C=CC3C(=O)N(C)C(=O)C32)cc(OC)c1OC (configuration not stated) ?
Result: -1.82

Ask: How about COCCOC(=O)N1C(=O)[C@@]2(c3cc(C#CC4=CCCCC4)ccc31)[C@H](c1ccccc1OCCO)N1[C@H](c3ccccc3)[C@H](c3ccccc3)OC(=O)[C@H]1[C@@H]2C(=O)N1CCN(c2ncccn2)CC1 ?
Result: 0.978

Ask: How about C=C(COC)C(=O)CC[C@@H](OC(C)=O)c1cccc(OCCO)c1 ?
Result: 0.0328

Ask: How about NC(=O)NCC#Cc1ccc2c(c1)[C@]1(C(=O)N2)[C@H](c2ccccc2OCCO)N2[C@H](c3ccccc3)[C@H](c3ccccc3)OC(=O)[C@H]2[C@@H]1C(=O)NC[C@H](O)c1ccccc1 ?
Result: 2.83

Ask: How about O=C1C[C@]2(c3ccc([N+](=O)[O-])cc3)C(=O)N(C3CC3)c3cc(CO)ccc3[C@H]2N1CC12CC3CC(CC(C3)C1)C2 ?
Result: -0.829
